Substrate: O=c1[nH]c(=O)c2[nH]c(=O)[nH]c2[nH]1
Assay: purified protein
Assay type: biochemical, Latimeria menadoensis
Details: 50 mM sodium borate pH 8.0, 30 °C, 15-120 µM uric acid
measured_attribute: Km (µM)
Respond numerically; units are µM and should not be typed.

| protein | observed_result |
| --- | --- |
| L. menadoensis uricase, wild type (LM-UOX-6His) (enzyme, UniProt M3XGK0 1-306, looked up, Uricase (urate oxidase) of Latimeria menadoensis, 306 amino acids; synthetic cDNA amplified with primers from the start codon to the last codon (no stop codon), cloned NdeI/XhoI into pET20b(+); The His6 tag is joined to the protein by two residues from the XhoI site; also called WT; WT LM-UOX; source: E. coli BL21(DE3), purified (Ni-NTA IMAC, gel filtration); not shown: His6, C-terminal, kept) MSHYVSSTRFQKDTDVEFVRTGYGKNIVKVLHIKREGKTHYIKEVEVAVQLALKSRKDYLYGDNSDIIPTDTMKNTVHALAKLKGINTIEEFAMDICEHFLTSFNHVTRANTYVEEAPWKRMEKNEVKHVHAFIYSPEATRFCEVEHHQNEPPVVHSGIKDMKVLKTTQSGFEGFVKDRFTTLPEVTDRCFSTVIYSKWLYNRSKNIDFDAAWKTVYDVIIEKFAGPYECGEYSPSVQKTLYETQVLCLNRVPEIEEVEIVMPNKHYFTIDMSKIGIVNKDEVLLPLDNPSGNITGTVRRKAHSKL | 18.43 |

Next up:
Q) Which Km value belongs to L. menadoensis uricase D288C mutant (enzyme, UniProt M3XGK0 1-306, looked up, Uricase (urate oxidase) of Latimeria menadoensis, 306 amino acids, same construct as the wild type (pET20LM-UOX) with D288C by site-directed mutagenesis; His6 tag joined by two residues from the XhoI site, as in m1; source: E. coli BL21(DE3), purified (Ni-NTA IMAC, gel filtration); not shown: His6, C-terminal, kept) MSHYVSSTRFQKDTDVEFVRTGYGKNIVKVLHIKREGKTHYIKEVEVAVQLALKSRKDYLYGDNSDIIPTDTMKNTVHALAKLKGINTIEEFAMDICEHFLTSFNHVTRANTYVEEAPWKRMEKNEVKHVHAFIYSPEATRFCEVEHHQNEPPVVHSGIKDMKVLKTTQSGFEGFVKDRFTTLPEVTDRCFSTVIYSKWLYNRSKNIDFDAAWKTVYDVIIEKFAGPYECGEYSPSVQKTLYETQVLCLNRVPEIEEVEIVMPNKHYFTIDMSKIGIVNKDEVLLPLCNPSGNITGTVRRKAHSKL ?
A) 189.65
